meta.source: patent US20220378931A1

# measurement target: T1, human serum albumin (human, UniProt P02768 25-609)
# T1 construct: bought protein, amine-coupled to a CM5 chip; also called Human SA; HSA
# assay notes: SPR (Biacore 8K), albumin immobilised, 25 C, 1:1 kinetics
property measured: koff (s⁻¹)
Report only the number, with the unit s⁻¹ understood.

Look up koff for this binder: INS Analog 23 (other, single-chain insulin B-L2-A-L1-VHH fusion; also called Ex. 23) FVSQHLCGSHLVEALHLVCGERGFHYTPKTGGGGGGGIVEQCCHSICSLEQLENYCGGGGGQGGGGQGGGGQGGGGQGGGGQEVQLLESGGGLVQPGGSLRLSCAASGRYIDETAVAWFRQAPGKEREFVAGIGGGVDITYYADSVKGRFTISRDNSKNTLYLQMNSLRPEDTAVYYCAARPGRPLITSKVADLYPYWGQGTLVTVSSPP
9e-05
